- TEST_SYSTEM: UDP-glucuronosyltransferases (UGTs) (Homo sapiens, UniProt O60656+O75310+O75795+P06133+P0DTE4+P0DTE5+P16662+P19224+P22309+P22310+P35503+P35504+P36537+P54855+Q6UWM9+Q9BY64+Q9HAW7+Q9HAW8+Q9HAW9)
- METHOD: Metabolic stability in human liver microsomes assessed as UGT-mediated N-glucuronidation by measuring half life at 3 uM measured up to 45 mins by LC-MS/MS analysis
- Format: ADME
- CONDITION_SUMMARY: liver microsomes
OBSERVATION_TYPE: half-life at 3 µM (h)

| MOL | OBSERVATION_TYPE | NUMBER |
| --- | --- | --- |
| COc1ccc([C@H]2[C@H](O)C(=O)N2c2cc(OC)c(OC)c(OC)c2)cc1F | half-life at 3 µM | 1.63 |

This collection of values is drawn from ChEMBL document CHEMBL4680165.
